Reference source: patent US10722593B2

System: HCC1954 cells
METHOD_SUMMARY: Inhibitory response against HCC1954 cells (method analogous to BT-474)
Format: cell-based
COND: Homo sapiens, inhibition of cell growth
pIC50: −log10 of the molar value. Square brackets hold non-standard residues; d marks the D form. Peptide text beside a SMILES is read from it. * marks the point of attachment. Dolaproine = CO[C@@H]([C@@H]1CCCN1)[C@@H](C)C(=O)O; Dil = CC[C@H](C)[C@H](NC)[C@@H](CC(=O)O)OC; dVal(3-OH) = CC(C)(O)[C@@H](N)C(=O)O; Val(3-OH) = CC(C)(O)[C@H](N)C(=O)O; Doe = c1ccc(C[C@H](N*)c2nccs2)cc1; X1 = C[C@@H](N*)[C@@H](O)c1ccccc1; NMeV = CN[C@H](C(=O)O)C(C)C; NMeAib = CNC(C)(C)C(=O)O

| COMPOUND | pIC50 |
| --- | --- |
| CC[C@H](C)[C@@H]([C@@H](CC(=O)N1CCC[C@H]1[C@H](OC)[C@@H](C)C(=O)N[C@@H](Cc1ccccc1)c1nccs1)OC)N(C)C(=O)[C@H](CSC)NC(=O)C(C)(C)NC [Compound 111] (H-[NMeAib]C(Me)[Dil][Dolaproine]-Doe) | 10.18 |
| CC[C@H](C)[C@@H]([C@@H](CC(=O)N1CCC[C@H]1[C@H](OC)[C@@H](C)C(=O)N[C@@H](Cc1ccccc1)c1nccs1)OC)N(C)C(=O)[C@H](NC(=O)C(C)(C)NC)C(C)(C)O [Compound 114] (H-[NMeAib][dVal(3-OH)][Dil][Dolaproine]-Doe) | 10.77 |
| CC[C@H](C)[C@@H]([C@@H](CC(=O)N1CCC[C@H]1[C@H](OC)[C@@H](C)C(=O)N[C@H](C)[C@@H](O)c1ccccc1)OC)N(C)C(=O)[C@@H](NC(=O)[C@@H](NC)C(C)C)C(C)(C)O [Compound 109] (H-[NMeV][Val(3-OH)][Dil][Dolaproine]-X1) | 7.96 |
| CC[C@H](C)[C@@H]([C@@H](CC(=O)N1CCC[C@H]1[C@H](OC)[C@@H](C)C(=O)N[C@@H](Cc1ccccc1)c1nccs1)OC)N(C)C(=O)[C@@H](NC(=O)C(C)(C)NC)C(C)(C)O [Compound 107] (H-[NMeAib][Val(3-OH)][Dil][Dolaproine]-Doe) | 10.52 |
